- System name: TbrCatL (Trypanosoma brucei rhodesiense, UniProt Q95PM0)
- Construct: Conor Caffrey (University of California San Diego)
- Sequence (Q95PM0 entry or part of it): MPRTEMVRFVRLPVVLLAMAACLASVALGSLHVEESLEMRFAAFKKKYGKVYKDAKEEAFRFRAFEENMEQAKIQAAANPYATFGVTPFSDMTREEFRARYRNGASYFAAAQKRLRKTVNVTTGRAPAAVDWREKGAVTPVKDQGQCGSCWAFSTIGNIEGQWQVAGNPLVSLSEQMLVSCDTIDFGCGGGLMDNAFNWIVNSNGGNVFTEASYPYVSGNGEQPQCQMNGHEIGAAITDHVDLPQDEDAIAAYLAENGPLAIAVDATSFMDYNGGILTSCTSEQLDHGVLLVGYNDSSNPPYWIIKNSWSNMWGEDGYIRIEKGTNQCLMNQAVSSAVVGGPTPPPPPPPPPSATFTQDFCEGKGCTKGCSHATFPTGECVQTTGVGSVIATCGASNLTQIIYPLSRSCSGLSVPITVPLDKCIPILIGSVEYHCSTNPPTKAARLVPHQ
- Assay summary: TbrCatL enzymatic inhibition assay (cleavage of fluorogenic substrate Z-FR-AMC);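 also: at 5 µM compound concentration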
- Format: biochemical
- Assay setup: 10’ (pre-incubation time); sheet "Screening results"
Quick reference: TbrCatL 10’ Inhibition of the listed items.
I only need the number, in %, no unit after it.

In the examples that follow, each entry is paired with its recorded TbrCatL 10’ Inhibition.
| Compound | System name | Quantity name | Quantitative readout |
| --- | --- | --- | --- |
| OC[C@H]1O[C@@H](n2c3ccc(Cl)cc3c3c(-c4cc5ccccc5o4)ncnc32)C(O)[C@H]1O (stereo partly drawn) [MMV688921] | TbrCatL (Trypanosoma brucei rhodesiense, UniProt Q95PM0) | TbrCatL 10’ Inhibition | 4.4 |
| Cc1nn(C)c(C)c1NS(=O)(=O)c1c(Cl)cc(-c2ccnc(N3CCNCC3)c2)cc1Cl [MMV688180] | TbrCatL (Trypanosoma brucei rhodesiense, UniProt Q95PM0) | TbrCatL 10’ Inhibition | 28 |
| CC(C)NCC(=O)Nc1cccc(C(=O)Nc2cccc(C(F)(F)F)c2)c1 [MMV020165] | TbrCatL (Trypanosoma brucei rhodesiense, UniProt Q95PM0) | TbrCatL 10’ Inhibition | 5 |
| O=C(NCc1cc(Cl)cc(Cl)c1)c1c(C(F)(F)F)nc2ccccn12 [MMV687699] | TbrCatL (Trypanosoma brucei rhodesiense, UniProt Q95PM0) | TbrCatL 10’ Inhibition | -6 |
| COc1ccc2nc(C)cc(OCC(=O)NCc3ccccc3)c2c1 [MMV687189] | TbrCatL (Trypanosoma brucei rhodesiense, UniProt Q95PM0) | TbrCatL 10’ Inhibition | 5 |
| O=C([C@@H](c1ccc(Cl)cc1)c1cccnc1)N1CCN(c2ccc(C(F)(F)F)cc2)CC1 [MMV689244] | TbrCatL (Trypanosoma brucei rhodesiense, UniProt Q95PM0) | TbrCatL 10’ Inhibition | -2.8 |
| COc1ccc(C(=N)N)cc1-c1cn(-c2ccc(C(=N)N)cc2)nn1 [MMV675998] | TbrCatL (Trypanosoma brucei rhodesiense, UniProt Q95PM0) | TbrCatL 10’ Inhibition | 34 |
| CC(C)n1nc(-c2cc3c(Cl)cccc3[nH]2)c2c(N)ncnc21 [MMV688417] | TbrCatL (Trypanosoma brucei rhodesiense, UniProt Q95PM0) | TbrCatL 10’ Inhibition | -13 |

Query block: What value of TbrCatL 10’ Inhibition has been reported for the following compound? c1ccc2c(c1)CN(CC1CC1)CC1(CCN(Cc3c[nH]c4cnccc34)CC1)O2 [MMV023183]
Result block: 1.8

Query block: What value of TbrCatL 10’ Inhibition has been reported for the following compound? CC(=O)N(CCN(C(=O)c1ccc(F)cc1)c1ccccc1)c1ccccc1 [MMV676064]
Result block: -7

Query block: What value of TbrCatL 10’ Inhibition has been reported for the following compound? CCn1ncc2c(NC3CCOCC3)c(CNC(=O)c3ccnn3C)c(C)nc21 [MMV026356]
Result block: -7

Query block: What value of TbrCatL 10’ Inhibition has been reported for the following compound? CCCCOC(=O)Nc1cc2[nH]c(C3CCCCC3)nc2cc1N1CCCC1 [MMV687730]
Result block: 12

Query block: What value of TbrCatL 10’ Inhibition has been reported for the following compound? Cn1c(=O)c2c(S(C)(=O)=O)snc2n(C)c1=O [MMV687251]
Result block: 0.4

Query block: What value of TbrCatL 10’ Inhibition has been reported for the following compound? COc1ccc(-c2onc(C(F)(F)F)c2-c2ccc(Cl)cc2)c(O)c1 [MMV688766]
Result block: -5

Query block: What value of TbrCatL 10’ Inhibition has been reported for the following compound? CCc1nc2ccc(C(=O)NCc3ccc4c(c3)OCO4)cn2c1N(C)Cc1cccs1 [MMV407539]
Result block: -3.2

Query block: What value of TbrCatL 10’ Inhibition has been reported for the following compound? N#Cc1nc(-c2ccccc2F)oc1NCCc1ccccc1 [MMV676384]
Result block: 7

Query block: What value of TbrCatL 10’ Inhibition has been reported for the following compound? O=C(Nc1cccc(Cl)c1)c1cnc(N2CCN(c3ccncc3)CC2)c(Cl)c1 [MMV024406]
Result block: 20

Query block: What value of TbrCatL 10’ Inhibition has been reported for the following compound? COc1ccc(C2(C(=O)Nc3ccc(Br)cc3)CCCC2)cc1 [MMV200748]
Result block: -3

Query block: What value of TbrCatL 10’ Inhibition has been reported for the following compound? CC1=Nc2ccc(Cl)cc2C(O)(c2ccc(C)cc2)N1CCN1CCCCC1 (stereo not drawn) [MMV688279]
Result block: -5

Query block: What value of TbrCatL 10’ Inhibition has been reported for the following compound? CN1CCC(NCc2cccc(-c3ccc(S(=O)(=O)NCc4ccccc4)cc3)c2)CC1 [MMV022029]
Result block: 14

---

- System name: TbrCatL (Trypanosoma brucei rhodesiense)
- Construct: Conor Caffrey (University of California San Diego)
- Assay summary: TbrCatL enzymatic inhibition assay (cleavage of fluorogenic substrate Z-FR-AMC);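 also: at 5 µM compound concentration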
- Type: biochemical
- Assay setup: 10’ (pre-incubation time); Pathogen Box screening results
Quantity name: TbrCatL Inhibition 10’
A complete answer gives the number and then names the unit.

In the examples that follow, each entry is paired with its recorded TbrCatL Inhibition 10’.
| Molecule | Quantity name | Result |
| --- | --- | --- |
| O=C(Nc1n[nH]c(=S)s1)c1cc(Br)ccc1Cl | TbrCatL Inhibition 10’ | 35% |
| O=C(Nc1cnc2ccccc2c1)c1cccc(-n2cnnn2)c1 | TbrCatL Inhibition 10’ | 5% |
| CO/N=C(/C(=O)OC)c1ccccc1CO/N=C(/C)c1cccc(C(F)(F)F)c1 | TbrCatL Inhibition 10’ | -1.2% |
| CCCCCCCCCCCCCCCCOP(=O)([O-])OCC[N+](C)(C)C | TbrCatL Inhibition 10’ | -12% |

Query block: What value of TbrCatL Inhibition 10’ has been reported for the following molecule? NCC(c1cccs1)S(=O)(=O)c1ccccc1 (centres unmarked)
Result block: 1.2%

---

- System name: TbrCatL (Trypanosoma brucei rhodesiense, UniProt Q95PM0)
- Construct: Conor Caffrey (University of California San Diego)
- Assay summary: TbrCatL enzymatic inhibition assay (cleavage of fluorogenic substrate Z-FR-AMC);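 also: at 5 µM compound concentration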
- Type: biochemical
- Assay setup: 0’ (pre-incubation time); sheet "Screening results"
Quantity name: TbrCatL 0’ Inhibition

| Molecule | Result |
| --- | --- |
| CCCNC(=O)N1CCC2(CC1)CC(=O)c1cc(C)ccc1O2 [MMV085230] | 8.5% |

Query block: What value of TbrCatL 0’ Inhibition has been reported for the following molecule? O=C(NCCc1ccn(-c2ccccc2)n1)C1CCCCC1 [MMV688795]
Result block: 5%

Query block: What value of TbrCatL 0’ Inhibition has been reported for the following molecule? NC(CC(=O)c1ccc(Cl)cc1Cl)C(Cl)(Cl)Cl (stereo not drawn) [MMV676468]
Result block: -5%

Query block: What value of TbrCatL 0’ Inhibition has been reported for the following molecule? CC(C)(C)n1nc(Cc2cccc3ccccc23)c2c(N)ncnc21 [MMV676599]
Result block: 4.6%

Query block: What value of TbrCatL 0’ Inhibition has been reported for the following molecule? COc1ccc(C2(C(=O)Nc3ccc(Br)cc3)CCCC2)cc1 [MMV200748]
Result block: -2.7%

Query block: What value of TbrCatL 0’ Inhibition has been reported for the following molecule? O=C(NCCc1ccccc1)c1cc(-c2cccnc2)cnc1NCC1CC1 [MMV026490]
Result block: 0.1%

---

- System name: UniProtKB P25779
- Sequence (P25779 123-337 limits assumed): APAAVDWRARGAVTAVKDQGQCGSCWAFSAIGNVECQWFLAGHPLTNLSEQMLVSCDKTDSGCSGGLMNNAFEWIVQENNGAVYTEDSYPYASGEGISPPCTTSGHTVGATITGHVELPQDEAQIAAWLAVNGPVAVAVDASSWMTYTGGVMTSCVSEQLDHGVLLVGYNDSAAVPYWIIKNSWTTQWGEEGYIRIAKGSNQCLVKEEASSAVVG
- Assay summary: biochemical
- Assay setup: 10’ (pre-incubation); sheet Screening results
Quantity name: Cruzain Inhibition 10’ (%)
I only need the number, in %, no unit after it.

| Molecule | System name | Quantity name | Quantitative readout |
| --- | --- | --- | --- |
| Oc1c(I)cc(I)c2cccnc12 | UniProtKB P25779 | Cruzain Inhibition 10’ | -16 |
| O=C(NCc1ccoc1)N1CCN(Cc2ccc3c(c2)OCO3)CC1 | UniProtKB P25779 | Cruzain Inhibition 10’ | 0.9 |
| O=C(c1ccco1)N(CCCn1ccnc1)c1nc2c(Cl)cccc2s1 | UniProtKB P25779 | Cruzain Inhibition 10’ | -0.2 |

Query block: # value lookup — system UniProtKB P25779, readout Cruzain Inhibition 10’, item COC(=O)C1=C(C)NC(C)=C(C(=O)OC(C)C)[C@H]1c1cccc2nonc12
Result block: 12

Query block: # value lookup — system UniProtKB P25779, readout Cruzain Inhibition 10’, item COc1cccc(OCC(=O)c2ccc(Br)cc2)c1
Result block: 14

Query block: # value lookup — system UniProtKB P25779, readout Cruzain Inhibition 10’, item O=C(CCC1CCCCC1)Nc1cccc(-c2nnc(-c3ccco3)o2)c1
Result block: 4
